Taken from PubChem BioAssay AID504332.

# tested.target: Histone-lysine N-methyltransferase EHMT2 (Homo sapiens) (UniProt Q96KQ7)
# Sequence (Q96KQ7 913-1193 limits assumed): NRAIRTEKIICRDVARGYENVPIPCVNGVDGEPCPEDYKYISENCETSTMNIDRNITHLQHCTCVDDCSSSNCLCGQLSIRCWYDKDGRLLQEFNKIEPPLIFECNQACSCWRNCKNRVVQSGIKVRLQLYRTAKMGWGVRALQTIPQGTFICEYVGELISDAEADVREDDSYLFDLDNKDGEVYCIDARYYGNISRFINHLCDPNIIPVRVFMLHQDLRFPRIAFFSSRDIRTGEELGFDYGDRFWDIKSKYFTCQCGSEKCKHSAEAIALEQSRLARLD
# run.description: qHTS Assay for Inhibitors of Histone Lysine Methyltransferase G9a; note: % is set by controls: 0 for no effect and ±100 for the full control effect; nearly all actives have a fitted effect of over 75% in size
# setup.conditions: G9a H3K9 monomethylation, AlphaScreen, 2 h; series mostly up to 59 µM
In all, about 350,000 compounds went through this assay and about 31,000 (8.9%) were called active. Inconclusive results (about 15%) are left out. The list comes from a sample in which actives are over-represented; it also holds close analogues and randomly drawn compounds.
parameter: activity, negative = inhibition

Problem: Tell me its activity, negative = inhibition on Histone-lysine N-methyltransferase EHMT2 (Homo sapiens) (UniProt Q96KQ7): `O=C(O)c1cccc(S(=O)(=O)N2CC=C(c3ccccc3)CC2)c1`
Solution: 23% [at 12.7 µM] (inactive)

Problem: Tell me its activity, negative = inhibition on Histone-lysine N-methyltransferase EHMT2 (Homo sapiens) (UniProt Q96KQ7): `COc1ccccc1NC(=S)N1CCN(c2ccc(F)cc2)CC1`
Solution: -4.21% [at 0.501 µM] (inactive)

Problem: Tell me its activity, negative = inhibition on Histone-lysine N-methyltransferase EHMT2 (Homo sapiens) (UniProt Q96KQ7): `CC(=O)Nc1ccc(Nc2cc(C)nc(Nc3ccc(NC(C)=O)cc3)n2)cc1`
Solution: -6.09% [at 2.33 µM] (inactive)

Problem: Tell me its activity, negative = inhibition on Histone-lysine N-methyltransferase EHMT2 (Homo sapiens) (UniProt Q96KQ7): `COC(=O)Cn1cc(C(=O)c2cccs2)c2ccccc21`
Solution: 10.8% [at 12.7 µM] (inactive)

Problem: Tell me its activity, negative = inhibition on Histone-lysine N-methyltransferase EHMT2 (Homo sapiens) (UniProt Q96KQ7): `O=C(C1CCN(S(=O)(=O)c2cnc[nH]2)CC1)N1CCN(Cc2ccc3c(c2)OCO3)CC1`
Solution: -12% [at 12.7 µM] (inactive)
